# System: Renal Hypertensive Rats
# TEST_PROTOCOL: Antihypertensive effects in renal hypertensive rats
# Type: in vivo
# RUN_CONDITIONS: Rattus norvegicus; Table 25; oral, 100 mg/kg or less
Listed here are compounds together with their documented minimal effective dose at 100 mg/kg.
MEASURED_ENDPOINT: minimal effective dose at 100 mg/kg

1) CCCCc1nccn1Cc1ccc(NC(=O)c2ccccc2C(=O)O)cc1 = > 100 mg/kg
2) CCCCc1nc(Cl)c(COC)n1Cc1ccc(-c2ccccc2NS(=O)(=O)C(F)(F)F)cc1 = < 100 mg/kg
3) CCCCc1nc(Cl)c(CO)n1Cc1ccc(-c2ccccc2NC(=O)C(F)(F)F)cc1 = > 100 mg/kg
4) CCCCc1nc(Cl)c(C(=O)NC)n1Cc1ccc(-c2ccccc2C(=O)O)cc1 = < 100 mg/kg
5) CCCCc1nc(Cl)c(CC(=O)OC)n1Cc1ccc(N2C(=O)c3ccccc3C2=O)cc1 = > 100 mg/kg
6) CCCCc1nc(CO)c(Cl)n1Cc1ccc(-c2ccccc2-c2n[nH]c(C(F)(F)F)n2)cc1 = < 100 mg/kg
7) CCCCc1nc(Cl)c(C=CCO)n1Cc1ccc(-c2ccccc2C(=O)O)cc1 = > 100 mg/kg
8) CCCCc1nc(Cl)c(CC(=O)OC)n1Cc1ccc(NC(=O)[C@@H]2CCCC[C@H]2NS(=O)(=O)C(F)(F)F)cc1 (relative stereo) [Example 74 (trans compound)] = > 100 mg/kg

###

# TESTED_SYSTEM: AII receptor
# TEST_PROTOCOL: Angiotensin II receptor binding (displacement of 3H-AII)
# RUN_CONDITIONS: read-out: Angiotensin II Receptor Binding IC50; Table 25; rat adrenal cortical microsomes, 2 nM 3H-AII, 1 hour, room temperature
Listed here are molecules together with their documented log10 of IC50.
MEASURED_ENDPOINT: log10 of IC50 (log10 of the value in nM)

1) CCCCCc1nc(Cl)c(CO)n1Cc1ccc(-c2ccccc2C(=O)O)cc1 = 2.99
2) CCCCc1nc(Cl)c(CCCF)n1Cc1ccc(-c2ccccc2C(=O)O)cc1 = 2.85
3) CCCCc1nc(C(F)(F)F)c(CO)n1Cc1ccc(-c2ccccc2C(=O)O)cc1 = 1.79
4) CCCCc1nc(Cl)c(C(=O)OC)n1Cc1ccc(-c2ccccc2C(=O)O)cc1 = 2.53
5) CCCCCCCc1nccn1Cc1ccc(NC(=O)c2ccccc2C(=O)O)cc1 = 3.04

###

Listed here are compounds together with their documented IC50.
# TESTED_SYSTEM: AII receptor
# TEST_PROTOCOL: Angiotensin II receptor binding (displacement of 3H-AII)
# RUN_CONDITIONS: read-out: Angiotensin II Receptor Binding IC50; Table 26; rat adrenal cortical microsomes, 2 nM 3H-AII, 1 hour, room temperature
MEASURED_ENDPOINT: IC50 (nM)

1. CCCCc1nc(Cl)c(-c2[nH]nnc2C(=O)O)n1Cc1ccc(-c2ccccc2-c2nnn[nH]2)cc1 = 1100
2. CCCCc1nc(Cl)c(CO)n1Cc1ccc(-c2ccccc2C(=O)NS(=O)(=O)c2ccccc2C)cc1 = 91
3. CCCCc1nc(Cl)c(CO)n1Cc1ccc(-c2ccccc2-c2nn[nH]c2C(=O)OC)cc1 = 260
4. CCCCc1nc(Cl)c(CO)n1Cc1ccc(-c2c(C#N)cccc2-c2nnn[nH]2)cc1 = 510
5. CCCCc1nc(Cl)c(C=NNC2=NCCN2)n1Cc1cccc(-c2ccccc2-c2nnn[nH]2)c1 [Example 327D] = 5200
6. CCCc1nc(Cl)c(C(=O)O)n1Cc1ccc(-c2ccccc2-c2nn[nH]n2)cc1 [Example 251A] = 45
7. CCCCc1nc(C#N)c(C(N)=O)n1Cc1ccc(-c2ccccc2-c2nnn[nH]2)cc1 = 37
8. CCCc1nc(C(F)(F)F)c(CO)n1Cc1ccc(-c2ccccc2C(=O)O)cc1 [Example 124A] = 130
9. CCC=Cc1nc(C(F)(F)F)c(C=O)n1Cc1ccc(-c2ccccc2C(=O)O)cc1 [Example 140F] = 200
10. CCCCc1nc(Cl)c(C=NNC2=NCCN2)n1Cc1ccc(-c2ccccc2-c2nnn[nH]2)cc1 [Example 327A] = 290
11. CCCCc1nc(Cl)c(C=NNS(=O)(=O)c2ccccc2)n1Cc1ccc(-c2ccccc2-c2nnn[nH]2)cc1 = 660
12. CCCc1nc(C(F)(F)F)c(CO)n1Cc1ccc(-c2ccccc2-c2nn[nH]n2)cc1 [Example 124D] = 6
13. CCCc1nc(C(F)(F)C(F)(F)C(F)(F)C(F)(F)C(F)(F)C(F)(F)F)c(CO)n1Cc1ccc(-c2ccccc2C(=O)O)cc1 [Example 124I] = 2500
14. CCCCc1nc(Br)c(C=O)n1Cc1ccc(-c2ccccc2C(=O)O)cc1 [Example 140D] = 400
15. CCCCc1nc(Cl)c(CN2CCN(c3ccccc3OC)CC2)n1Cc1ccc(-c2ccccc2-c2nnn[nH]2)cc1 = 350
16. CCCCc1nc(Cl)c(C(O)c2ccccc2)n1Cc1ccc(-c2ccccc2-c2nn[nH]n2)cc1 (stereo not shown) [Example 317A] = 410

###

# Test system: Renal Hypertensive Rats
# TEST_PROTOCOL: Antihypertensive effects in renal hypertensive rats
# Format: in vivo
# RUN_CONDITIONS: Rattus norvegicus; Table 25; tested as sodium salt; oral, 100 mg/kg or less
MEASURED_ENDPOINT: minimal effective dose at 100 mg/kg

1. CCCCc1nc(Cl)c(CC(=O)OC)n1Cc1ccc(NC(=O)c2cccc(C)c2NS(=O)(=O)C(F)(F)F)cc1 [Example 36] = > 100 mg/kg
2. CCCCc1nc(Cl)c(COC)n1Cc1ccc(C(=O)c2ccccc2C(=O)O)cc1 [Example 207] = < 100 mg/kg
3. CCCCc1nc(Cl)c(CC(=O)OC)n1Cc1ccc(NC(=O)c2ccccc2C(=O)O)cc1 [Example 2] = > 100 mg/kg
4. CCCCc1nc(Cl)c(CNC(=O)Oc2ccccc2)n1Cc1ccc(-c2ccccc2C(=O)O)cc1 [Example 149] = < 100 mg/kg
5. CCCCc1nc(Cl)c(CC(=O)OC)n1Cc1ccc(NC(=O)c2ccccc2NS(=O)(=O)C(F)(F)F)cc1 [Example 30] = < 100 mg/kg
6. CCCCc1nc(Cl)c(COC)n1Cc1ccc(C(=O)Nc2nnn[nH]2)cc1 [Example 79] = > 100 mg/kg
7. CCCCc1nc(C#N)c(C#N)n1Cc1ccc(NC(=O)c2ccccc2NS(=O)(=O)C(F)(F)F)cc1 [Example 75] = < 100 mg/kg
8. CCCCc1nc(CNC(=O)OC)c(Cl)n1Cc1ccc(-c2ccccc2C(=O)O)cc1 [Example 160] = < 100 mg/kg

###

# TESTED_SYSTEM: AII receptor
# TEST_PROTOCOL: Angiotensin II receptor binding (displacement of 3H-AII)
# RUN_CONDITIONS: read-out: Angiotensin II Receptor Binding IC50; Table 25; rat adrenal cortical microsomes, 2 nM 3H-AII, 1 hour, room temperature
pIC50: −log10 of the molar value.
MEASURED_ENDPOINT: pIC50

1) CCCCc1nc(Cl)c(CC(=O)OC)n1Cc1ccc(NC(=O)c2ccccc2NS(C)(=O)=O)cc1 = 5.64
2) CCCCc1nc(Cl)c(/C=C/C(=O)OC)n1Cc1ccc(NC(=O)c2ccccc2C(=O)O)cc1 = 6.57
3) CCCCc1nc(Cl)c(CO)n1Cc1ccc(-c2ccccc2C(=O)O)cc1 = 6.55
4) CCCCc1nc(Cl)c(CC(=O)O)n1Cc1ccc(NS(=O)(=O)C(F)(F)F)cc1 = 5.41
5) CCCCc1nc(Cl)c(CCCOC(C)=O)n1Cc1ccc(NC(=O)c2ccccc2NS(=O)(=O)C(F)(F)F)cc1 = 6.60
6) CCC=Cc1nc(C(F)(F)F)c(CO)n1Cc1ccc(-c2ccccc2C(=O)O)cc1 = 7.28
7) CCCCc1nc(Cl)c(/C=C/C(=O)OCC)n1Cc1ccc(NC(=O)c2ccccc2C(=O)O)cc1 = 6.28
8) CCCCCc1nccn1Cc1ccc(NC(=O)c2ccccc2C(=O)O)cc1 = 6.62
9) O=C(Nc1ccc(Cn2ccnc2CC2CCCCC2)cc1)c1ccccc1NS(=O)(=O)C(F)(F)F = 5.30
10) CCCCc1nc(Cl)c(CO)n1-c1ccc(NC(=O)c2ccccc2NS(=O)(=O)C(F)(F)F)cc1 = 6.14
11) CCCCc1ncc(C=O)n1Cc1ccc(-c2ccccc2C(=O)O)cc1 = 6.33
12) CCCCc1nc(Cl)c(COC)n1Cc1ccc(C(=O)N2CCC[C@H]2C(=O)O)cc1 = 5.19
13) CCCCc1nc(Cl)c(CCC(C)=O)n1Cc1ccc(NC(=O)c2ccccc2C(=O)O)cc1 = 7.06
14) CCCCc1nc(Cl)c(/C=C/COC(C)=O)n1Cc1ccc(NC(=O)c2ccccc2NS(=O)(=O)C(F)(F)F)cc1 = 6.29
15) CCCCc1ncc(CO)n1-c1ccc(NC(=O)c2ccccc2NS(=O)(=O)C(F)(F)F)cc1 = 6.10
16) CCCCc1nc(Cl)c(CC(=O)OC)n1Cc1ccc(NC(=O)c2cc(C)ccc2NS(=O)(=O)C(F)(F)F)cc1 [Example 53A] = 6.09
